Overview of reported IC50 across a group of compounds:
Target: CA II (Homo sapiens, UniProt P00918)

Before answering, review these 2 worked examples.
O=C1NS(=O)(=O)c2cc(-n3cc(CO[C@@H]4O[C@H](CO)[C@H](O)[C@H](O)[C@H]4O)nn3)ccc21 [1b, saccharin-glycoconjugate 1b] : > 2 µM
O=C1NS(=O)(=O)c2cc(-n3cc(CCO[C@@H]4O[C@H](CO)[C@H](O)[C@H](O)[C@H]4O)nn3)ccc21 [1c, saccharin-glycoconjugate 1c] : > 2 µM

Next compound, IC50 to be filled in.
Log: CA II (Homo sapiens, UniProt P00918), compound O=C1NS(=O)(=O)c2cc(-n3cc(CO[C@@H]4O[C@H](CO)[C@@H](O)[C@H](O)[C@H]4O)nn3)ccc21 [1a, saccharin-glycoconjugate 1a] , IC50 = > 2 µM

Recorded values, source paper PMC6492551.
